Collected EC50 values appear next to each entry.
- System tested: XIAP BIR3 domain (Homo sapiens)
- Construct: fluorescent probe 4 and the XIAP BIR3 domain (Sino Biological, Beijing, China) were used for all measurements; purchased Sino Biological, Beijing, China
- Method summary: Fluorescence polarization inhibition (competition) assay
- Type: binding
- Condition set: XIAP BIR3 50 nM, fluorescent probe 4 2 nM; read-out: EC50
Peptide text beside a SMILES is read from it.
Property: EC50

INSERT INTO assay_data (compound, value_observed) VALUES
  ('CN[C@@H](C)C(=O)N[C@H](C(=O)N1CCC[C@H]1C(=O)NC(CC(C)C)P(=O)(Oc1ccccc1)Oc1ccccc1)C(C)C (stereo partly drawn)', '28.1 µM'),
  ('CCc1ccc(OP(=O)(Oc2ccc(CC)cc2)C(C)NC(=O)[C@@H]2CCCN2C(=O)[C@@H](NC(=O)[C@H](C)NC)C2CCCCC2)cc1 (stereo partly drawn)', '20.5 µM'),
  ('CN[C@@H](C)C(=O)N[C@H](C(=O)N1CCC[C@H]1C(=O)NC(Cc1ccccc1)P(=O)(Oc1ccccc1)Oc1ccccc1)C(C)C (stereo partly drawn)', '0.13 µM'),
  ('CN[C@@H](C)C(=O)N[C@H](C(=O)N1CCC[C@H]1C(=O)NCP(=O)(c1cc(C)cc(C)c1)c1cc(C)cc(C)c1)C(C)C', '48 µM'),
  ('CN[C@@H](C)C(=O)N[C@H](C(=O)N1CCC[C@H]1C(=O)NC(CCSC)P(=O)(Oc1ccccc1)Oc1ccccc1)C1CCCCC1 (stereo partly drawn)', '26.3 µM'),
  ('CC(C)[C@H](NC(=O)[C@H](C)N)C(=O)N1CCC[C@H]1C(=O)N[C@@H](Cc1c[nH]c2ccccc12)C(=O)O [Compound 3, H2N-Ala-Val-Pro-Trp-OH, reference compound] (H-AVPW-OH)', '0.34 µM');

----------
- System tested: XIAP BIR3 domain (Homo sapiens, UniProt P98170)
- Construct: fluorescent probe 4 and the XIAP BIR3 domain (Sino Biological, Beijing, China) were used for all measurements; purchased Sino Biological, Beijing, China
- Sequence (P98170 252-356 limits assumed): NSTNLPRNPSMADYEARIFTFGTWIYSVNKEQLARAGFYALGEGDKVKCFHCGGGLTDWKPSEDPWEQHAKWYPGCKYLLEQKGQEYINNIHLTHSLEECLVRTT
- Method summary: Fluorescence polarization inhibition (competition) assay
- Type: binding
- Condition set: XIAP BIR3 50 nM, fluorescent probe 4 2 nM; read-out: log EC50 (converted)
- Experimental: The fluorescence polarization assay was performed at r.t. in Corning 384-well black, polystyrene flat bottom plates (Corning, NY, USA) on a Synergy H4 Hybrid Reader (BioTek, Bad Friedrichshall, Germany). For fluorescence polarization measurements, (milipolarization units, mP) 484/20 nm excitation and 528/20 nm emission filters were selected. […] The obtained fluorescence polarization assay data were analyzed with Prism 5.0 Software (GraphPad Software, San Diego, ca.). […]
Collected EC50 values appear next to each entry.
Property: EC50 (µM)

INSERT INTO results (molecule, system_tested, value_observed) VALUES
  ('CN[C@@H](C)C(=O)N[C@H](C(=O)N1CCC[C@H]1C(=O)NCP(=O)(c1cc(C)cc(C)c1)c1cc(C)cc(C)c1)C1CCCCC1', 'XIAP BIR3 domain (Homo sapiens, UniProt P98170)', 22.5),
  ('CN[C@@H](C)C(=O)N[C@H](C(=O)N1CCC[C@H]1C(=O)NC(CCc1ccccc1)P(=O)(Oc1ccccc1)Oc1ccccc1)C(C)C (stereo partly drawn)', 'XIAP BIR3 domain (Homo sapiens, UniProt P98170)', 17.2),
  ('CN[C@@H](C)C(=O)N[C@H](C(=O)N1CCC[C@H]1C(=O)NC(C)P(=O)(c1cc(C)cc(C)c1)c1cc(C)cc(C)c1)C(C)C (stereo partly drawn)', 'XIAP BIR3 domain (Homo sapiens, UniProt P98170)', 32.4);

----------
- System tested: XIAP BIR3 domain (Homo sapiens, UniProt P98170)
- Construct: fluorescent probe 4 and the XIAP BIR3 domain (Sino Biological, Beijing, China) were used for all measurements; purchased Sino Biological, Beijing, China
- Method summary: Fluorescence polarization inhibition (competition) assay
- Assay type: binding
- Condition set: XIAP BIR3 50 nM, fluorescent probe 4 2 nM; read-out: log EC50 (converted)
Property: EC50

INSERT INTO assay_data (molecule, value_observed) VALUES
  ('CN[C@@H](C)C(=O)N[C@H](C(=O)N1CCC[C@H]1C(=O)NC(C)P(=O)(Oc1ccc(C(C)(C)C)cc1)Oc1ccc(C(C)(C)C)cc1)C(C)C (stereo partly drawn)', '21.3 µM'),
  ('CN[C@@H](C)C(=O)N[C@H](C(=O)N1CCC[C@H]1C(=O)NCP(=O)(c1ccccc1C)c1ccccc1C)C1CCCCC1', '28.1 µM'),
  ('CCC(C)C(NC(=O)[C@@H]1CCCN1C(=O)[C@@H](NC(=O)[C@H](C)NC)C1CCCCC1)P(=O)(Oc1ccccc1)Oc1ccccc1 (stereo partly drawn)', '16.3 µM'),
  ('CN[C@@H](C)C(=O)N[C@H](C(=O)N1CCC[C@H]1C(=O)NC(C)P(=O)(c1ccc(C)cc1)c1ccc(C)cc1)C1CCCCC1 (stereo partly drawn)', '19.3 µM'),
  ('CN[C@@H](C)C(=O)N[C@H](C(=O)N1CCC[C@H]1C(=O)NC(Cc1ccccc1)P(=O)(Oc1ccccc1)Oc1ccccc1)C(C)C (stereo partly drawn)', '0.131 µM'),
  ('CN[C@@H](C)C(=O)N[C@H](C(=O)N1CCC[C@H]1C(=O)NCP(=O)(C(C)(C)C)C(C)(C)C)C(C)C', '29.6 µM');

----------
- System tested: XIAP BIR3 domain (Homo sapiens)
- Construct: fluorescent probe 4 and the XIAP BIR3 domain (Sino Biological, Beijing, China) were used for all measurements; purchased Sino Biological, Beijing, China
- Method summary: Fluorescence polarization inhibition (competition) assay
- Type: binding
- Condition set: XIAP BIR3 50 nM, fluorescent probe 4 2 nM; read-out: EC50
EC50 less than 20 µM is MET; EC50 greater than or equal to 20 µM is NOT MET.

INSERT INTO results (molecule, assigned_category) VALUES
  ('CN[C@@H](C)C(=O)N[C@H](C(=O)N1CCC[C@H]1C(=O)NC(CCc1ccccc1)P(=O)(Oc1ccccc1)Oc1ccccc1)C1CCCCC1 (some centres unmarked)', 'MET'),
  ('CCC(NC(=O)[C@@H]1CCCN1C(=O)[C@@H](NC(=O)[C@H](C)NC)C1CCCCC1)P(=O)(Oc1ccccc1)Oc1ccccc1 (some centres unmarked)', 'NOT MET'),
  ('CN[C@@H](C)C(=O)N[C@H](C(=O)N1CCC[C@H]1C(=O)NC(C)P(=O)(c1ccc(C)cc1)c1ccc(C)cc1)C1CCCCC1 (some centres unmarked)', 'MET'),
  ('CN[C@@H](C)C(=O)N[C@H](C(=O)N1CCC[C@H]1C(=O)NCP(=O)(c1ccccc1)c1ccccc1)C(C)C', 'NOT MET'),
  ('CN[C@@H](C)C(=O)N[C@H](C(=O)N1CCC[C@H]1C(=O)NCP(=O)(c1ccc(C)cc1)c1ccc(C)cc1)C(C)C', 'NOT MET'),
  ('CN[C@@H](C)C(=O)N[C@H](C(=O)N1CCC[C@H]1C(=O)Nc1snnc1-c1ccccc1)C1CCCCC1 [GDC-0152, reference compound]', 'MET'),
  ('CN[C@@H](C)C(=O)N[C@H](C(=O)N1CCC[C@H]1C(=O)NC(C)P(=O)(c1cc(C)cc(C)c1)c1cc(C)cc(C)c1)C(C)C (some centres unmarked)', 'NOT MET'),
  ('CN[C@@H](C)C(=O)N[C@H](C(=O)N1CCC[C@H]1C(=O)NC(Cc1ccccc1)P(=O)(c1ccccc1)c1ccccc1)C(C)C (some centres unmarked)', 'MET'),
  ('CN[C@@H](C)C(=O)N[C@H](C(=O)N1CCC[C@H]1C(=O)NCP(=O)(C(C)(C)C)C(C)(C)C)C(C)C', 'NOT MET'),
  ('CCC(C)C(NC(=O)[C@@H]1CCCN1C(=O)[C@@H](NC(=O)[C@H](C)NC)C1CCCCC1)P(=O)(Oc1ccccc1)Oc1ccccc1 (some centres unmarked)', 'MET'),
  ('CN[C@@H](C)C(=O)N[C@H](C(=O)N1CCC[C@H]1C(=O)NCP(=O)(c1ccc(C)cc1)c1ccc(C)cc1)C1CCCCC1', 'NOT MET');

----------
Collected EC50 values appear next to each entry.
- System tested: XIAP BIR3 domain (Homo sapiens, UniProt P98170)
- Construct: fluorescent probe 4 and the XIAP BIR3 domain (Sino Biological, Beijing, China) were used for all measurements; purchased Sino Biological, Beijing, China
- Method summary: Fluorescence polarization inhibition (competition) assay
- Assay type: binding
- Condition set: XIAP BIR3 50 nM, fluorescent probe 4 2 nM; read-out: log EC50 (converted)
- Experimental: The fluorescence polarization assay was performed at r.t. in Corning 384-well black, polystyrene flat bottom plates (Corning, NY, USA) on a Synergy H4 Hybrid Reader (BioTek, Bad Friedrichshall, Germany). For fluorescence polarization measurements, (milipolarization units, mP) 484/20 nm excitation and 528/20 nm emission filters were selected. […] The obtained fluorescence polarization assay data were analyzed with Prism 5.0 Software (GraphPad Software, San Diego, ca.). […]
Property: EC50 (µM)

INSERT INTO assay_data (compound, value_observed) VALUES
  ('CN[C@@H](C)C(=O)N[C@H](C(=O)N1CCC[C@H]1C(=O)NC(CCSC)P(=O)(Oc1ccccc1)Oc1ccccc1)C(C)C (stereo partly drawn)', 26.2),
  ('CN[C@@H](C)C(=O)N[C@H](C(=O)N1CCC[C@H]1C(=O)NC(CC(C)C)P(=O)(Oc1ccccc1)Oc1ccccc1)C1CCCCC1 (stereo partly drawn)', 10.6),
  ('CN[C@@H](C)C(=O)N[C@H](C(=O)N1CCC[C@H]1C(=O)NC(C)P(=O)(Oc1ccc(C(C)C)cc1)Oc1ccc(C(C)C)cc1)C1CCCCC1 (stereo partly drawn)', 19.8),
  ('CN[C@@H](C)C(=O)N[C@H](C(=O)N1CCC[C@H]1C(=O)NC(C)P(=O)(Oc1ccc(C(C)(C)C)cc1)Oc1ccc(C(C)(C)C)cc1)C1CCCCC1 (stereo partly drawn)', 26.7),
  ('CN[C@@H](C)C(=O)N[C@H](C(=O)N1CCC[C@H]1C(=O)NCP(=O)(c1cc(C)cc(C)c1)c1cc(C)cc(C)c1)C(C)C', 48),
  ('CN[C@@H](C)C(=O)N[C@H](C(=O)N1CCC[C@H]1C(=O)NC(CC(C)C)P(=O)(Oc1ccccc1)Oc1ccccc1)C(C)C (stereo partly drawn)', 28.1);

Taken from paper PMC7497679.
